tested on: U2OS; experiment: cell viability relative to DMSO; higher = less toxic; details: 72 h; 1 nM
Entries annotated with measured cell viability

>  <MOLECULE>
CNC(=O)[C@@H](NC(=O)[C@H](CC(C)C)[C@H](O)C(=O)NO)C(C)(C)C [marimastat]

>  <cell viability [%]>
98.7

$$$$
>  <MOLECULE>
CC(=O)Oc1cccc(C(=O)O)c1OC(C)=O [dipyrocetyl]

>  <cell viability [%]>
103

$$$$
>  <MOLECULE>
CC1C(=O)OC2C(O)C34C5CC(C(C)(C)C)C36C(OC(=O)C6O)OC4(C(=O)O5)C12O (centres undefined) [ginkgolide-B]

>  <cell viability [%]>
106

$$$$
>  <MOLECULE>
CN(C)C(=O)C(=O)c1cn(C)c2cc(Cl)c(C(=O)N3CCC(Cc4ccc(F)cc4)CC3)cc12 [SX-011]

>  <cell viability [%]>
99.1

$$$$

This collection of values is drawn from the supplement of paper PMC13380429.
